target.or.system: CYP2B6 (Homo sapiens)
test: Inhibition of recombinant CYP2B6 at 1 uM
Type: ADME
Give measured inhibition at 1 µM for each item. Keep answers brief.
Entry rule: numbers only, all in %.

Request: What measured inhibition at 1 µM goes with C[C@]12CC[C@H](O)CC1=CC[C@@H]1[C@@H]2CC[C@]2(C)C(c3cccnc3)=CC[C@@H]12 ?
Response: 2

Request: What measured inhibition at 1 µM goes with CC(c1ccc(-c2ccsc2)cc1)n1ccnc1 (centres undefined) ?
Response: 49

Request: What measured inhibition at 1 µM goes with CCC(c1ccc(-c2ccsc2)cc1)n1ccnc1 (centres undefined) ?
Response: 60

Request: What measured inhibition at 1 µM goes with CC(=O)N1CCN(c2ccc(OCC3COC(Cn4ccnc4)(c4ccc(Cl)cc4Cl)O3)cc2)CC1 (centres undefined) ?
Response: 11

###

target.or.system: CYP2C9 (Homo sapiens)
Sequence (P11712 whole entry): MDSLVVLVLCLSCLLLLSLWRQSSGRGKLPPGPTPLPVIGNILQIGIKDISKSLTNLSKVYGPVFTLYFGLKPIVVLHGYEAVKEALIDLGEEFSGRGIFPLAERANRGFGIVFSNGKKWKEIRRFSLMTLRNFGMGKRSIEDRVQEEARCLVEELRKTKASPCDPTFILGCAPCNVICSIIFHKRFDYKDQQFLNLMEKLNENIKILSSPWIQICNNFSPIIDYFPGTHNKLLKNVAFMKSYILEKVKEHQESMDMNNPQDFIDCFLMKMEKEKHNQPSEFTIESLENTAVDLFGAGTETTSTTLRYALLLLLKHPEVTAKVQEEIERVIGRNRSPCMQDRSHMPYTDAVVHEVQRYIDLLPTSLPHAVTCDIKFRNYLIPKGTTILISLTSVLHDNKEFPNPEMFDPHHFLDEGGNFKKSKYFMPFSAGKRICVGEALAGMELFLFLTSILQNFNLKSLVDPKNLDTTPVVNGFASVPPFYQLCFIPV
test: Inhibition of recombinant CYP2C9 at 1 uM
Type: ADME
quantity.name: inhibition at 1 µM (%)
Entry rule: numbers only, all in %.

Request: What measured inhibition at 1 µM goes with CCC(c1cc(-c2ccc(F)c(F)c2)cs1)n1ccnc1 (stereo not drawn) ?
Response: 94

Request: What measured inhibition at 1 µM goes with CC(c1ccc(-c2ccsc2)cc1)n1ccnc1 (stereo not drawn) ?
Response: 75

Request: What measured inhibition at 1 µM goes with CCC(c1ccc(-c2ccsc2)cc1)n1ccnc1 (stereo not drawn) ?
Response: 81

###

target.or.system: CYP3A4 (Homo sapiens, UniProt P08684)
Sequence (P08684 whole entry): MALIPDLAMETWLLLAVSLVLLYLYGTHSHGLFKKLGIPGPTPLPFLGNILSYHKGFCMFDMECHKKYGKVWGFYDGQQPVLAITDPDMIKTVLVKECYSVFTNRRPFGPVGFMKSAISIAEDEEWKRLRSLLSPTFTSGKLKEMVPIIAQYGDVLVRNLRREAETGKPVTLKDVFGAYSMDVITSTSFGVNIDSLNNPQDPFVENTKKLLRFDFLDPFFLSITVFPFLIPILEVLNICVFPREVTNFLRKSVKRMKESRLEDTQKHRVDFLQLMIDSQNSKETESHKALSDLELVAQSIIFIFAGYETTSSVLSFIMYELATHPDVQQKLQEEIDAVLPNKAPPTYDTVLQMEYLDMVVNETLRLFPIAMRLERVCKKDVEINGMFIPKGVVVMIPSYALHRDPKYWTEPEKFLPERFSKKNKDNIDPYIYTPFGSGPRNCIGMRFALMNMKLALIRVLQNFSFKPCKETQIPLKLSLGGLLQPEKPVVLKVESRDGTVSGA
test: Inhibition of recombinant CYP3A4 at 10 uM
Format: ADME
quantity.name: inhibition at 10 µM (%)
Entry rule: numbers only, all in %.

Request: What measured inhibition at 10 µM goes with C[C@]12CC[C@H](O)CC1=CC[C@@H]1[C@@H]2CC[C@]2(C)C(c3cccnc3)=CC[C@@H]12 [ABIRATERONE] ?
Response: 25

Request: What measured inhibition at 10 µM goes with CCC(c1ccc(-c2ccsc2)cc1)n1ccnc1 (stereo not given) ?
Response: 92

Request: What measured inhibition at 10 µM goes with CC(c1ccc(-c2ccsc2)cc1)n1ccnc1 (stereo not given) ?
Response: 94

Request: What measured inhibition at 10 µM goes with CCC(c1ccc(-c2ccsc2Cl)cc1)n1ccnc1 (stereo not given) ?
Response: 97

Request: What measured inhibition at 10 µM goes with CCC(c1ccc(-c2cscc2C)cc1F)n1ccnc1 (stereo not given) ?
Response: 97

###

test: Terminal half life in Wistar rat plasma at 50 mg/kg, po
Format: ADME, organism-based
Design: dose 50 mg/kg, route oral
Give measured half-life for each item. Keep answers brief.
Entry rule: numbers only, all in h.

Request: What measured half-life goes with CCC(c1ccc(-c2ccsc2)cc1)n1ccnc1 (stereo not drawn) ?
Response: 3.8

Request: What measured half-life goes with CC(c1ccc(-c2ccsc2)cc1)n1ccnc1 (stereo not drawn) ?
Response: 9.5

Request: What measured half-life goes with C[C@]12CC[C@H](O)CC1=CC[C@@H]1[C@@H]2CC[C@]2(C)C(c3cccnc3)=CC[C@@H]12 ?
Response: 1.6

###

target.or.system: CYP2C19 (Homo sapiens, UniProt P33261)
Sequence (P33261 whole entry): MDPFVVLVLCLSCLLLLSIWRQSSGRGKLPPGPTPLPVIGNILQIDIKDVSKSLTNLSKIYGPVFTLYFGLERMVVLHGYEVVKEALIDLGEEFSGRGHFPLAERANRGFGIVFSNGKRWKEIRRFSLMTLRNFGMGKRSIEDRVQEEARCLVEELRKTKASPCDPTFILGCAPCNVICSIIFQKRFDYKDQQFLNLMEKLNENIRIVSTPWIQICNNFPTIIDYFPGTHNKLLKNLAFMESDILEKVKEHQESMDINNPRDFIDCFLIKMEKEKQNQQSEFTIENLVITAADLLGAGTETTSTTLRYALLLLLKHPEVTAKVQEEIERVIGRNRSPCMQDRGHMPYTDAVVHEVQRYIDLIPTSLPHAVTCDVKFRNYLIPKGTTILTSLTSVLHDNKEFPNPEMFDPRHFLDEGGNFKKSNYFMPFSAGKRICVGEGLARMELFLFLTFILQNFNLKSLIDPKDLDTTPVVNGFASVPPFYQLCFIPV
test: Inhibition of recombinant CYP2C19 at 1 uM
Type: ADME
quantity.name: inhibition at 1 µM (%)
Entry rule: numbers only, all in %.

Request: What measured inhibition at 1 µM goes with CCC(c1cc(-c2ccc(F)c(F)c2)cs1)n1ccnc1 (stereo not drawn) ?
Response: 95

Request: What measured inhibition at 1 µM goes with CCC(c1ccc(-c2ccsc2)cc1)n1ccnc1 (stereo not drawn) ?
Response: 95

Request: What measured inhibition at 1 µM goes with CC(c1ccc(-c2ccsc2)cc1)n1ccnc1 (stereo not drawn) ?
Response: 87

###

target.or.system: CYP2B6 (Homo sapiens, UniProt P20813)
Sequence (P20813 whole entry): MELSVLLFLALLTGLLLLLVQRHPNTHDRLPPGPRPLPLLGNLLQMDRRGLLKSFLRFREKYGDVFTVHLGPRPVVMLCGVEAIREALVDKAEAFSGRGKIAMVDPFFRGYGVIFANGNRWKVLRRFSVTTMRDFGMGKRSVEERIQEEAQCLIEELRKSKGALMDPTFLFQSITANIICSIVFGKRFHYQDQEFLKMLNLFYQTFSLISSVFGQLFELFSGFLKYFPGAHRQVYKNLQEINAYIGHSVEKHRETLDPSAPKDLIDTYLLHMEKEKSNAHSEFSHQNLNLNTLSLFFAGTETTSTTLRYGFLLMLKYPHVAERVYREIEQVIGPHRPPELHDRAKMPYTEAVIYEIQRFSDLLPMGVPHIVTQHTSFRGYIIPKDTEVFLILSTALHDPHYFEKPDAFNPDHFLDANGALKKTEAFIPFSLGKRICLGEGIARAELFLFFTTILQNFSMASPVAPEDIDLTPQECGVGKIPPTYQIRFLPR
test: Inhibition of recombinant CYP2B6 at 10 uM
Assay type: ADME
quantity.name: inhibition at 10 µM (%)
Entry rule: numbers only, all in %.

Request: What measured inhibition at 10 µM goes with CC(c1ccc(-c2ccsc2)cc1)n1ccnc1 (centres undefined) ?
Response: 87

Request: What measured inhibition at 10 µM goes with CC(=O)N1CCN(c2ccc(OCC3COC(Cn4ccnc4)(c4ccc(Cl)cc4Cl)O3)cc2)CC1 (centres undefined) ?
Response: 57

Request: What measured inhibition at 10 µM goes with CCC(c1ccc(-c2ccsc2)cc1)n1ccnc1 (centres undefined) ?
Response: 87

Request: What measured inhibition at 10 µM goes with C[C@]12CC[C@H](O)CC1=CC[C@@H]1[C@@H]2CC[C@]2(C)C(c3cccnc3)=CC[C@@H]12 ?
Response: 11

###

target.or.system: CYP2C9 (Homo sapiens)
test: Inhibition of recombinant CYP2C9 at 10 uM
Assay type: ADME
Give measured inhibition at 10 µM for each item. Keep answers brief.

Request: What measured inhibition at 10 µM goes with CCC(c1cc(-c2ccc(F)c(F)c2)cs1)n1ccnc1 (stereo not drawn) ?
Response: 100%

Request: What measured inhibition at 10 µM goes with CCC(c1ccc(-c2ccsc2)cc1)n1ccnc1 (stereo not drawn) ?
Response: 74%

Request: What measured inhibition at 10 µM goes with CC(c1ccc(-c2ccsc2)cc1)n1ccnc1 (stereo not drawn) ?
Response: 89%

###

test: Cmax in Wistar rat at 50 mg/kg, po
Assay type: ADME, organism-based
Design: dose 50 mg/kg, route oral
reported.conditions: in vivo
Give measured Cmax for each item. Keep answers brief.
Entry rule: numbers only, all in ng/mL.

Request: What measured Cmax goes with C[C@]12CC[C@H](O)CC1=CC[C@@H]1[C@@H]2CC[C@]2(C)C(c3cccnc3)=CC[C@@H]12 ?
Response: 592

Request: What measured Cmax goes with CC(c1ccc(-c2ccsc2)cc1)n1ccnc1 (stereo not drawn) ?
Response: 1280

Request: What measured Cmax goes with CCC(c1ccc(-c2ccsc2)cc1)n1ccnc1 (stereo not drawn) ?
Response: 1740

###

target.or.system: Steroid 17-alpha-hydroxylase/17,20 lyase (Homo sapiens, UniProt P05093)
Sequence (P05093 whole entry): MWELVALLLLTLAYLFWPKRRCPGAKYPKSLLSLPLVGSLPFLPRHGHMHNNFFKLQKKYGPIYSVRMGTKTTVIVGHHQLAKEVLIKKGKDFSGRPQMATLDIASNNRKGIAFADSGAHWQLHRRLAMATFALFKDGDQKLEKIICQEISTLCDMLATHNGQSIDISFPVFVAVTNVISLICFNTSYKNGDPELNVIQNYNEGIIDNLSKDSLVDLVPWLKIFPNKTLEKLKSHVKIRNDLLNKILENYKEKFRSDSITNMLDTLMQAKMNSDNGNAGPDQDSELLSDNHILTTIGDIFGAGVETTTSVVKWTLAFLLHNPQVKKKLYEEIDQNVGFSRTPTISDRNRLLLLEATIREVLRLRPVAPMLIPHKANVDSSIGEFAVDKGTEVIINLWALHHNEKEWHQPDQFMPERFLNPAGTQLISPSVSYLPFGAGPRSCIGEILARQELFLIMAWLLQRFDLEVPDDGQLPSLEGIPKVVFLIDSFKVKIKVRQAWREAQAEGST
test: Inhibition of human CYP17 expressed in Escherichia coli co-expressed with NADPH-P450 reductase at 2 uM
Mark Not satisfied for inhibition at 2 µM values under 10%, and Satisfied for everything at or above.

Request: Is the recorded value of inhibition at 2 µM equal to or greater than 10% for this compound? Nc1cccc(-c2ccc(Cn3ccnc3)cn2)c1
Response: Not satisfied

Request: Is the recorded value of inhibition at 2 µM equal to or greater than 10% for this compound? CCC(c1cc(-c2ccc(F)c(F)c2)cs1)n1ccnc1 (centres undefined)
Response: Satisfied

Request: Is the recorded value of inhibition at 2 µM equal to or greater than 10% for this compound? CCC(c1ccc(-c2ccc(SC)s2)cc1)n1ccnc1 (centres undefined)
Response: Not satisfied

Request: Is the recorded value of inhibition at 2 µM equal to or greater than 10% for this compound? COc1ccc(-c2csc(Cn3ccnc3)c2)cc1
Response: Satisfied

Request: Is the recorded value of inhibition at 2 µM equal to or greater than 10% for this compound? CCC(c1ccc(-c2cscc2C)cc1)n1ccnc1 (centres undefined)
Response: Satisfied

Request: Is the recorded value of inhibition at 2 µM equal to or greater than 10% for this compound? Fc1ccc(-c2csc(Cn3ccnc3)c2)cc1
Response: Satisfied

Request: Is the recorded value of inhibition at 2 µM equal to or greater than 10% for this compound? COc1cccc(-c2ccc(Cn3ccnc3)cn2)c1
Response: Not satisfied

Request: Is the recorded value of inhibition at 2 µM equal to or greater than 10% for this compound? CC(c1ccc(N2CCOCC2)cc1)n1ccnc1 (centres undefined)
Response: Satisfied

Request: Is the recorded value of inhibition at 2 µM equal to or greater than 10% for this compound? COc1ccc(-c2ccc(Cn3ccnc3)cn2)cc1OC
Response: Not satisfied

###

Give measured inhibition at 1 µM for each item. Keep answers brief.
target.or.system: CYP3A4 (Homo sapiens)
test: Inhibition of recombinant CYP3A4 at 1 uM
Assay type: ADME
Entry rule: numbers only, all in %.

Request: inhibition at 1 µM of CCC(c1ccc(-c2ccsc2)cc1)n1ccnc1 (stereo not drawn) on CYP3A4 (Homo sapiens)?
Response: 88

Request: inhibition at 1 µM of CCC(c1ccc(-c2ccsc2Cl)cc1)n1ccnc1 (stereo not drawn) on CYP3A4 (Homo sapiens)?
Response: 87

Request: inhibition at 1 µM of CCC(c1ccc(-c2cscc2C)cc1F)n1ccnc1 (stereo not drawn) on CYP3A4 (Homo sapiens)?
Response: 88
